Target: CXCR3 (Homo sapiens (Human))
Experiment: Receptor internalization assay (RIA) in human whole blood
Assay type: cell-based
Conditions: final CXCL10 9 nM, CXCR3 surface expression on CD4 positive cells
Listed below: IC50 values for each entry.
Please state the figure in nM; there is no need to write the unit.

CCOc1ncc(-c2nc(C(F)(F)F)sc2N2CCN(C(=O)Cn3cnc(C)n3)[C@H](C)C2)cn1 | 211

-- ask Consider the compound shown here: CCc1ncn(CC(=O)N2CCN(c3sc(C(F)(F)F)nc3-c3cnc(C4CC4)nc3)C[C@H]2C)n1 What is its recorded IC50?
-- reply 190

-- ask Endpoint output: IC50 of CCOc1ncc(-c2nc(C(F)(F)F)sc2N2CCN(C(=O)Cn3cnc(C(C)C)n3)[C@H](C)C2)cn1 . Value?
-- reply 299

-- ask IC50 for C[C@@H]1CN(c2sc(C(F)(F)F)nc2-c2cnc(C3CC3)nc2)CCN1C(=O)Cn1cnc(C(C)(C)C)n1 ?
-- reply 679

* * *

Target: human CXCR3A (Homo sapiens (Human), UniProt P49682)
Sequence (P49682 whole entry): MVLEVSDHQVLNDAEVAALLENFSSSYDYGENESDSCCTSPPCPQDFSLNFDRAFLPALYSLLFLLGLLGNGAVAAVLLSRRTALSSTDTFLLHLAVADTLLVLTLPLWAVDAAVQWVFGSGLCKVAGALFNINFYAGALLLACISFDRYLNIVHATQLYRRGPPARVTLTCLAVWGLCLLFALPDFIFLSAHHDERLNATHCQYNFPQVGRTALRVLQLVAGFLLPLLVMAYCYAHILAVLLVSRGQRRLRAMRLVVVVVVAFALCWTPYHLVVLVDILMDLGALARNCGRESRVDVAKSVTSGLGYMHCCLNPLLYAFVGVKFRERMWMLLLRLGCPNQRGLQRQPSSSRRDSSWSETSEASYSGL
Assay: FLIPR assay (calcium flux, CXCL10-induced)
Conditions: CHO-K1 cells expressing human CXCR3A coupled to Galpha(16); CXCL10 agonist at 20 nM
Listed next: entries and their corresponding pIC50.
Scale: negative log10 of molar concentration, which is what pIC50 denotes.

These recorded examples may help you get a feel for the data.
C[C@@H]1CN(c2sc(C(F)(F)F)nc2-c2cnc(C3CC3)nc2)CCN1C(=O)Cn1cnc(C(C)(C)C)n1 | 8.34
CC(C)c1ncn(CC(=O)N2CCN(c3sc(C(F)(F)F)nc3-c3cnc(C(F)(F)F)nc3)C[C@H]2C)n1 | 8.89
CCOc1ncc(-c2nc(C(F)(F)F)sc2N2CCN(C(=O)Cn3cnc(CC)n3)[C@H](C)C2)cn1 | 8.80

Continue with the next compound.
-- ask # get_value(readout='pIC50', item= Cc1ncn(CC(=O)N2CCN(c3sc(C(F)(F)F)nc3-c3cnc(C(F)(F)F)nc3)C[C@H]2C)n1 )
-- reply 8.80

* * *

Biological target: human CXCR3A (Homo sapiens (Human))
Test: FLIPR assay (calcium flux, CXCL10-induced)
Conditions: CHO-K1 cells expressing human CXCR3A coupled to Galpha(16); CXCL10 agonist at 20 nM
# IC50 per entry
Respond numerically; units are nM and should not be typed.

Before answering, review these 6 worked examples.
CC(C)c1ncn(CC(=O)N2CCN(c3sc(C(F)(F)F)nc3-c3cnc(OC4CCC4)nc3)C[C@H]2C)n1 | 1.2
CCOc1ncc(-c2nc(C(F)(F)F)sc2N2CCN(C(=O)Cn3cnc(C)n3)[C@H](C)C2)cn1 | 1.8
CCOc1ncc(-c2nc(C(F)(F)F)sc2N2CCN(C(=O)Cn3cnc(C(C)(C)C)n3)[C@H](C)C2)cn1 | 1
C[C@@H]1CN(c2sc(C(F)(F)F)nc2-c2cnc(C(F)(F)F)nc2)CCN1C(=O)Cn1cnc(C(N)=O)n1 | 12
Cc1ncn(CC(=O)N2CCN(c3sc(C(F)(F)F)nc3-c3cnc(C4CC4)nc3)C[C@H]2C)n1 | 5.2
CCOc1ncc(-c2nc(C(F)(F)F)sc2N2CCN(C(=O)Cn3cnc(C(C)C)n3)[C@H](C)C2)cn1 | 2.3

Next, consider the following molecule.
-- ask Give the measured IC50 of COCc1ncn(CC(=O)N2CCN(c3sc(C(F)(F)F)nc3-c3cnc(C4CC4)nc3)C[C@H]2C)n1 .
-- reply 3.1

* * *

Target: hERG K channel (Homo sapiens (Human))
Experiment: hERG Q-Patch assay
Format: cell-based
Settings: concentration 300 nM; CHO cells expressing hERG; K+ tail current
Binary label based on % block with cut-off 4%: below gives condition met, not below gives condition not met.

-- ask Problem: For the compound CCc1ncn(CC(=O)N2CCN(c3sc(C(F)(F)F)nc3-c3cnc(C4CC4)nc3)C[C@H]2C)n1 , is % block under 4%?
-- reply condition met

-- ask % block under 4%? Item: CC(C)c1ncn(CC(=O)N2CCN(c3sc(C(F)(F)F)nc3-c3cnc(C(F)(F)F)nc3)C[C@H]2C)n1
-- reply condition not met

-- ask Decide: % block of COCc1ncn(CC(=O)N2CCN(c3sc(C(F)(F)F)nc3-c3cnc(C(F)(F)F)nc3)C[C@H]2C)n1 strictly below 4%?
-- reply condition met

-- ask Lab note: confirm whether the reported % block for this compound is below 4%, equality not counting. compound: CCOc1ncc(-c2nc(C(F)(F)F)sc2N2CCN(C(=O)Cn3cnc(C(C)(C)C)n3)[C@H](C)C2)cn1
-- reply condition not met

-- ask Problem: For the compound Cc1ncn(CC(=O)N2CCN(c3sc(C(F)(F)F)nc3-c3cnc(C(F)(F)F)nc3)C[C@H]2C)n1 , is % block under 4%?
-- reply condition met

* * *

This section presents compounds with their documented IC50 values.
Biological target: UniProtKB P49682
Assay: FLIPR assay (calcium flux, CXCL10-induced)
Conditions: CHO-K1 cells expressing human CXCR3A coupled to Galpha(16); CXCL10 agonist at 20 nM
Give your result in nM as a bare value.

CC(C)c1ncn(CC(=O)N2CCN(c3sc(C(F)(F)F)nc3-c3cnc(C4CC4)nc3)C[C@H]2C)n1 [Example 16] | 0.7
C[C@@H]1CN(c2sc(C(F)(F)F)nc2-c2cnc(C(F)(F)F)nc2)CCN1C(=O)Cn1cnc(CO)n1 [Example 10] | 5.2

# input for lookup
-- ask What value of IC50 has been recorded for this entry: C[C@@H]1CN(c2sc(C(F)(F)F)nc2-c2cnc(C(F)(F)F)nc2)CCN1C(=O)Cn1cnc(C(C)(C)C)n1 [Example 8]
-- reply 1.6

* * *

Target: hERG K channel (Homo sapiens (Human), UniProt Q12809)
Sequence (Q12809 whole entry): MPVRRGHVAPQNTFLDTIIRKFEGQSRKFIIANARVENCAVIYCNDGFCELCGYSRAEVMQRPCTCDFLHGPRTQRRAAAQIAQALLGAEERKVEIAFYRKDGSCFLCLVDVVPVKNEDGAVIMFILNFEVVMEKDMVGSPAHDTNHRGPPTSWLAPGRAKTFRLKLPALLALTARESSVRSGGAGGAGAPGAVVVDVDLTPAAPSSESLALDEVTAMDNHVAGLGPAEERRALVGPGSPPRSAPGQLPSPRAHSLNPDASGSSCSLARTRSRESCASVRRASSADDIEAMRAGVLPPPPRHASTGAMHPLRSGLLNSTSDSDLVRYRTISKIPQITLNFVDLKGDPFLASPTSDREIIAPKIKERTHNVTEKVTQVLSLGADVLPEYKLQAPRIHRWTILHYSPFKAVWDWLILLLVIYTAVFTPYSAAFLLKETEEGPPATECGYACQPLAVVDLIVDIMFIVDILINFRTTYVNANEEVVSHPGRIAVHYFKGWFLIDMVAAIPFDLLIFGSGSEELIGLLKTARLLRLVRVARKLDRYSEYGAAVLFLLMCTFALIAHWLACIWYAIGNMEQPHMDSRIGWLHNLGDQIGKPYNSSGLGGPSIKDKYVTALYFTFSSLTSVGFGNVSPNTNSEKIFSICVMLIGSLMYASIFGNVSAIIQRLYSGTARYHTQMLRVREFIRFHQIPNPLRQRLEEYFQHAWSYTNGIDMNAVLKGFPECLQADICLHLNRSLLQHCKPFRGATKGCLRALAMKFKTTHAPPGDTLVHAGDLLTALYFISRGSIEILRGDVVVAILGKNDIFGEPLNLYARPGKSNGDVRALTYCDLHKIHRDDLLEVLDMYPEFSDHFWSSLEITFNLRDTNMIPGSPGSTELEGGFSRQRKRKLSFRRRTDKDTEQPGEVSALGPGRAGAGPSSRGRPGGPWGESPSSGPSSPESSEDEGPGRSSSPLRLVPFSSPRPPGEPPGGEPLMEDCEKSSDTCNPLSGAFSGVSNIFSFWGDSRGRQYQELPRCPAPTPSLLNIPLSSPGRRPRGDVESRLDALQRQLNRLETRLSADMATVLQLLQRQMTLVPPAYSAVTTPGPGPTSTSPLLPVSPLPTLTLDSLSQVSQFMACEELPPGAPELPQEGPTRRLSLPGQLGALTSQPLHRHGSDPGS
Assay: hERG Q-Patch assay
Type: cell-based
Conditions: concentration 3000 nM; CHO cells expressing hERG; K+ tail current
Classification field: enter 1.0 for % block values not below 20%, 0.0 for values below it.

Completed entries (count: 3):
CCc1ncn(CC(=O)N2CCN(c3sc(C(F)(F)F)nc3-c3cnc(C(F)(F)F)nc3)C[C@H]2C)n1 | 1.0
CCOc1ncc(-c2nc(C(F)(F)F)sc2N2CCN(C(=O)Cn3cnc(CC)n3)[C@H](C)C2)cn1 | 0.0
Cc1ncn(CC(=O)N2CCN(c3sc(C(F)(F)F)nc3-c3cnc(C(F)(F)F)nc3)C[C@H]2C)n1 | 0.0

Continue with the compound presented below.
-- ask Is % block at least 20%? Consider CC(C)c1ncn(CC(=O)N2CCN(c3sc(C(F)(F)F)nc3-c3cnc(OC4CCC4)nc3)C[C@H]2C)n1
-- reply 1.0

* * *

Entries and their % block
Molecular target: UniProt:Q12809
Experiment: hERG Q-Patch assay
Format: cell-based
Settings: concentration 300 nM; CHO cells expressing hERG; K+ tail current
Procedure: Compounds are evaluated for block of the hERG K channel using CHO cells stably expressing the hERG gene (accession number U04270, bSys, Witterswil, Switzerland) and the QPatch robotic platform (Sophion, Ballerup, Denmark) in single-cell mode at room temperature. […] K+ currents are measured with the patch-voltage-clamp technique in the whole-cell configuration with the internal solution (in mM: KCl, 140; NaCl, 10; MgCl2, 1; HEPES, 10; EGTA, 5; pH=7.2 with KOH). […]
Return type: number; implicit unit %.

Known % block results, listed for orientation:
CCOc1ncc(-c2nc(C(F)(F)F)sc2N2CCN(C(=O)Cn3cnc(C)n3)[C@H](C)C2)cn1 | 9
C[C@@H]1CN(c2sc(C(F)(F)F)nc2-c2cnc(C3CC3)nc2)CCN1C(=O)Cn1cnc(C(C)(C)C)n1 | 0
CCOc1ncc(-c2nc(C(F)(F)F)sc2N2CCN(C(=O)Cn3cnc(C(C)C)n3)[C@H](C)C2)cn1 | 6
Cc1ncn(CC(=O)N2CCN(c3sc(C(F)(F)F)nc3-c3cnc(C4CC4)nc3)C[C@H]2C)n1 | 3
CCOc1ncc(-c2nc(C(F)(F)F)sc2N2CCN(C(=O)Cn3cnc(COC)n3)[C@H](C)C2)cn1 | 5

-- ask Reported % block for COCc1ncn(CC(=O)N2CCN(c3sc(C(F)(F)F)nc3-c3cnc(C4CC4)nc3)C[C@H]2C)n1 : what is it?
-- reply 10

-- ask Reported % block for CCOc1ncc(-c2nc(C(F)(F)F)sc2N2CCN(C(=O)Cn3cnc(CC)n3)[C@H](C)C2)cn1 : what is it?
-- reply −2

* * *

Target: CXCR3 (Homo sapiens (Human), UniProt P49682)
Experiment: Receptor internalization assay (RIA) in human whole blood
Settings: final CXCL10 9 nM, CXCR3 surface expression on CD4 positive cells
Method: Stock solutions of test compounds are made up at a concentration of 10 mM in DMSO, and serially diluted in PBS containing 0.5% BSA to concentrations required for inhibition dose response curves. […] After washing the cells with PBS containing 0.5% BSA, the samples are then analyzed in a flow cytometer (FACS Canto II, Becton Dickinson). For data analysis using FACSDiva software (Becton Dickinson), the mean fluorescence corresponding to CXCR3 cell surface expression was determined on CD4 positive cells. […]
experimentalReadout: pIC50
Scale: pIC50 equals -log10([C]), with [C] in mol/L.

Below, each entry is followed by its recorded pIC50 result.
C[C@@H]1CN(c2sc(C(F)(F)F)nc2-c2cnc(C(F)(F)F)nc2)CCN1C(=O)Cn1cnc(CO)n1 [Example 10] | 6.09
Cc1ncn(CC(=O)N2CCN(c3sc(C(F)(F)F)nc3-c3cnc(C(F)(F)F)nc3)C[C@H]2C)n1 [Example 20] | 6.72
CC(O)c1ncn(CC(=O)N2CCN(c3sc(C(F)(F)F)nc3-c3cnc(C(F)(F)F)nc3)C[C@H]2C)n1 (some centres unmarked) [Example 12] | 6.25
CC(C)c1ncn(CC(=O)N2CCN(c3sc(C(F)(F)F)nc3-c3cnc(OC4CCC4)nc3)C[C@H]2C)n1 [Example 14] | 6.34
C[C@@H]1CN(c2sc(C(F)(F)F)nc2-c2cnc(C(F)(F)F)nc2)CCN1C(=O)Cn1cnc(C(C)(C)C)n1 [Example 8] | 6.46

-- ask Tell me the measured pIC50 of COCc1ncn(CC(=O)N2CCN(c3sc(C(F)(F)F)nc3-c3cnc(C4CC4)nc3)C[C@H]2C)n1 [Example 18] , please.
-- reply 5.86

-- ask Item under review: CCOc1ncc(-c2nc(C(F)(F)F)sc2N2CCN(C(=O)Cn3cnc(C(C)(C)C)n3)[C@H](C)C2)cn1 [Example 3] . Reported pIC50?
-- reply 6.26

-- ask Give its pIC50 value. Item: C[C@@H]1CN(c2sc(C(F)(F)F)nc2-c2cnc(C(F)(F)F)nc2)CCN1C(=O)Cn1cnc(C(N)=O)n1 [Example 5]
-- reply 5.77
